- Measured On: human recombinant Aurora B (Homo sapiens)
- Construct: purchased ThermoFisher PR9210B
- Sequence (Q96GD4 whole entry): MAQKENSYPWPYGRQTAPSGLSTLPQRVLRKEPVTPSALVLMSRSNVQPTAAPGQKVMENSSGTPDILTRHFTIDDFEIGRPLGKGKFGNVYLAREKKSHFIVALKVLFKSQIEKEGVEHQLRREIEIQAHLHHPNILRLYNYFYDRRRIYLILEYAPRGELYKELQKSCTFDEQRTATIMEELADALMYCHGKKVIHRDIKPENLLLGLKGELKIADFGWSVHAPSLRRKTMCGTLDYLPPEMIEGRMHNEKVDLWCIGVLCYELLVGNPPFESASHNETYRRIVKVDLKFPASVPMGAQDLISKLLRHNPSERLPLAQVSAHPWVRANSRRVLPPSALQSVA
- Procedure Summary: Aurora B Kinase Biochemical Assay (ADP-Glo)
- Conditions Used: selectivity ratio Aurora B vs PLK4
Property Name: [Aurora B IC50 (nM)]/[PLK4 IC50 (nM)]
Answers are plain numbers.

Solved cases below.
> print(dat)
                                   molecule                          property.name  value
1  COc1cnc(C)nc1Nc1n[nH]c2cc([C@@H]3C[C@@]34C(=O)Nc3ccc(OC(F)(F)F)cc34)ccc12 [Example 138]  [Aurora B IC50 (nM)]/[PLK4 IC50 (nM)]     36
2  COc1ccc2c(c1)[C@]1(C[C@H]1c1ccc3c(Nc4nccc5c4OC[C@H]5CO)n[nH]c3c1)C(=O)N2 (single isomer, unassigned) [Example 34]  [Aurora B IC50 (nM)]/[PLK4 IC50 (nM)]  19.96

Now consider the entry below.
Entry COc1cnc(C)nc1Nc1n[nH]c2cc([C@@H]3C[C@@]34C(=O)Nc3ccc(C(F)(F)F)cc34)ccc12 [Example 137] — recorded [Aurora B IC50 (nM)]/[PLK4 IC50 (nM)] = 72
